PROCEDURE TEXT: Toxicity liver stage against HepG2, at 10uM
Assay type: cell-based
Parameters: test concentration 10 uM, cell line HepG2-A16-CD81EGFP
CONDITION INFO: human, HepG2-A16-CD81EGFP cells; read-out: INHIBITION
Listed below: cytotoxicity at 10 µM values for each entry.
READOUT NAME: cytotoxicity at 10 µM (%)

molecule=Cc1ccc(CN2CCC3(CC2)C(=O)N(CC(C)C)CCN3C)o1 readout_name="cytotoxicity at 10 µM" result_unit=% experimental_result=-0.508
molecule=Cc1nn(C(C)C)c(C)c1S(=O)(=O)Nc1ccc(C(=O)O)cc1 readout_name="cytotoxicity at 10 µM" result_unit=% experimental_result=15.2
molecule="Cc1nc(N)ncc1C(=O)N1CCCC(CCc2ccccc2F)C1 (centres undefined)" readout_name="cytotoxicity at 10 µM" result_unit=% experimental_result=-4.96
molecule="CNC(=O)C1(C)CCCN(c2cnccn2)C1 (centres undefined)" readout_name="cytotoxicity at 10 µM" result_unit=% experimental_result=-25.3
molecule="CCN(CC(C)C#N)C(=O)CSc1ccc(C(F)(F)F)cn1 (centres undefined)" readout_name="cytotoxicity at 10 µM" result_unit=% experimental_result=9.81
molecule=NC(=O)CCn1cc(CNCCCc2ccncc2)c2ccccc21 readout_name="cytotoxicity at 10 µM" result_unit=% experimental_result=7.28
molecule=Cn1ccnc1C(=O)NC[C@@H]1OC[C@H]2CN(S(C)(=O)=O)CC[C@H]21 readout_name="cytotoxicity at 10 µM" result_unit=% experimental_result=-99.3
molecule="CC(=O)N(Cc1noc(C2CC2)n1)C1CCN(Cc2cccnc2)C1 (centres undefined)" readout_name="cytotoxicity at 10 µM" result_unit=% experimental_result=-3.36
molecule="O=C(c1cccc(Cl)c1F)N1CCOC2(CNCCOC2)C1 (centres undefined)" readout_name="cytotoxicity at 10 µM" result_unit=% experimental_result=-2.06
molecule="CC(=O)N1CCN(Cc2c(C)ccc3ccccc23)CC(O)C1 (centres undefined)" readout_name="cytotoxicity at 10 µM" result_unit=% experimental_result=11.8
molecule=COc1ccc(-n2cccn2)cc1S(=O)(=O)N1C[C@H](C2CC2)[C@@H](N)C1 readout_name="cytotoxicity at 10 µM" result_unit=% experimental_result=4.69
molecule="COc1cccc(C2SCC(=O)Nc3ccsc32)c1OC (centres undefined)" readout_name="cytotoxicity at 10 µM" result_unit=% experimental_result=0.661
molecule=Cn1ccnc1CN1CCN(c2ncnc3ccsc23)CC1 readout_name="cytotoxicity at 10 µM" result_unit=% experimental_result=-7.95
molecule="CCC1c2ccccc2CCN1C(=O)c1ccc(OC)nn1 (centres undefined)" readout_name="cytotoxicity at 10 µM" result_unit=% experimental_result=-12.8
molecule="CCn1c(C2CCCN(Cc3cccc4cnccc34)C2)nn(C)c1=O (centres undefined)" readout_name="cytotoxicity at 10 µM" result_unit=% experimental_result=-6.29
molecule=O=C(N1CCOCC1)[C@@]12CCO[C@@H]1CCN(C1CCCCC1)C2 readout_name="cytotoxicity at 10 µM" result_unit=% experimental_result=2.14
molecule="Cc1noc(C)c1CNC(=O)N1CCCC(C)CC1 (centres undefined)" readout_name="cytotoxicity at 10 µM" result_unit=% experimental_result=-7.31
molecule="Cc1cccc(C(=O)N2CCC3(CC2)CC(c2cnn(C)c2)CO3)c1 (centres undefined)" readout_name="cytotoxicity at 10 µM" result_unit=% experimental_result=-78.7
molecule=CN(C)c1ccccc1CN1CCC(N2CCCC2=O)CC1 readout_name="cytotoxicity at 10 µM" result_unit=% experimental_result=5.02
molecule="Cc1nn(-c2ccccc2)c(C)c1CNC1CCc2ncnn2C1 (centres undefined)" readout_name="cytotoxicity at 10 µM" result_unit=% experimental_result=2.87
molecule="Cc1ccccc1N1CC2(CCCCN2CC2CC2)CC1=O (centres undefined)" readout_name="cytotoxicity at 10 µM" result_unit=% experimental_result=10.4
molecule=O=C(c1ccsc1)N1CCC(c2nnc(C3CC3)o2)CC1 readout_name="cytotoxicity at 10 µM" result_unit=% experimental_result=12.3
molecule="CC(C)N1CCOC(c2cc(CCO)[nH]n2)C1 (centres undefined)" readout_name="cytotoxicity at 10 µM" result_unit=% experimental_result=1.47
molecule=CCc1ccsc1C(=O)N1CCN(CCN2C(=O)CCC2=O)CC1 readout_name="cytotoxicity at 10 µM" result_unit=% experimental_result=-3.82
molecule="COc1ccc(C(NCc2ccc(C#N)cc2)C2CC2)cc1 (centres undefined)" readout_name="cytotoxicity at 10 µM" result_unit=% experimental_result=7.18
molecule="O=C1CC2(CCCCN2C(=O)c2ccoc2)CN1Cc1ccccc1 (centres undefined)" readout_name="cytotoxicity at 10 µM" result_unit=% experimental_result=6.35
molecule="Cc1ccc(-c2cc(N)c(=O)n(C(C)C(=O)NC(C)C)n2)o1 (centres undefined)" readout_name="cytotoxicity at 10 µM" result_unit=% experimental_result=-6.69
molecule="COCC(=O)N1CCCC(c2nc(N(C)C)ncc2-c2ccccc2)C1 (centres undefined)" readout_name="cytotoxicity at 10 µM" result_unit=% experimental_result=6.1
molecule=CCCSc1ncc(CN(C)CCN2CCCCC2)cn1 readout_name="cytotoxicity at 10 µM" result_unit=% experimental_result=-1.39
molecule=CCOC1CCN(C(=O)c2ccc(-c3cccc(C)c3)[nH]c2=O)CC1 readout_name="cytotoxicity at 10 µM" result_unit=% experimental_result=3.08
molecule=Cn1c(=O)n(C)c2cc(NS(=O)(=O)Cc3ccccc3)ccc21 readout_name="cytotoxicity at 10 µM" result_unit=% experimental_result=-4.62
molecule=O=C(NCc1ccccn1)[C@@H]1COC[C@H]2CN(C3CCOCC3)C[C@H]21 readout_name="cytotoxicity at 10 µM" result_unit=% experimental_result=2.52
molecule="Cc1nc(-c2ccncc2)ncc1C(C)NC(=O)Cn1ccccc1=O (centres undefined)" readout_name="cytotoxicity at 10 µM" result_unit=% experimental_result=4.01
molecule="Cc1cc(CC(=O)N(CC2CN(C)CCO2)c2nccs2)no1 (centres undefined)" readout_name="cytotoxicity at 10 µM" result_unit=% experimental_result=-7.49
molecule=Cc1cc(Cn2cc(C#N)c(=O)c3ccccc32)no1 readout_name="cytotoxicity at 10 µM" result_unit=% experimental_result=5.76
molecule=CCn1cnnc1C1CCN(C(=O)c2ccnc(N(C)C)c2)CC1 readout_name="cytotoxicity at 10 µM" result_unit=% experimental_result=8.2
molecule=CC[C@@H](c1ccccc1)n1c(CN)n[nH]c1=O readout_name="cytotoxicity at 10 µM" result_unit=% experimental_result=-4.34
molecule=CN(c1ccc(CNc2c(Cl)cccc2C#N)cc1)S(C)(=O)=O readout_name="cytotoxicity at 10 µM" result_unit=% experimental_result=-66.9
molecule="CCS(=O)(=O)NC(CCSC)C(=O)Nc1ccc(C)cc1C (centres undefined)" readout_name="cytotoxicity at 10 µM" result_unit=% experimental_result=-8.9
molecule=CC1CCN(C(=O)c2cccc3ncccc23)CC1 readout_name="cytotoxicity at 10 µM" result_unit=% experimental_result=4.21
molecule="O=S(=O)(Cc1ccccc1)CC(O)Cn1cccn1 (centres undefined)" readout_name="cytotoxicity at 10 µM" result_unit=% experimental_result=3.4
molecule=COCCNC(=O)CCNc1cc(C)nc(-c2ccncc2)n1 readout_name="cytotoxicity at 10 µM" result_unit=% experimental_result=-1.26
molecule="CCC(CO)N(Cc1cccs1)C(=O)Cc1ccncc1 (centres undefined)" readout_name="cytotoxicity at 10 µM" result_unit=% experimental_result=-9.67
molecule=c1ccc(C2=NOC3(CCN(Cc4c[nH]c5ccccc45)CC3)C2)cc1 readout_name="cytotoxicity at 10 µM" result_unit=% experimental_result=3.93
